Values compiled from PubChem BioAssay (NCATS).

system: PA-1; assay: Primary qHTS to identify gynecologic anti-cancer compounds using libraries of approved drugs and bioactive compounds (AID 1345084); details: Gynecologic cancer cell panel viability, ATPlite luminescence, 48 h; series mostly up to 57.5 µM; further: on the % scale 0 is the no-effect control and ±100 the full control effect; nearly all actives have a fitted effect of over 55% in size
Inconclusive results are not listed. Active and inactive are the calls of the source. The call rests on the fitted dose curve; in most records, active means well fitted cell-killing curve with a large enough effect; inconclusive means small, poorly fitted or top-dose-only effect, or effect the other way; inactive means flat fitted curve, though single readings scatter.
endpoint_label: activity change, negative = cytotoxicity

Below are worked cases with known answers.
{"molecule": "COc1ccc2c3c1O[C@H]1C[C@@H](O)C=C[C@@]31CCN(C)C2", "activity change, negative = cytotoxicity": "inactive"}
{"molecule": "COc1cc(C2Oc3c(OC)cc(CCCO[C@@H]4O[C@H](CO)[C@@H](O)[C@H](O)[C@H]4O)cc3C2CO)ccc1O (stereo partly specified)", "activity change, negative = cytotoxicity": "inactive"}
{"molecule": "COc1ccc([C@H]2Cc3cccc(O)c3C(=O)O2)cc1", "activity change, negative = cytotoxicity": "inactive"}
{"molecule": "CC(=O)OC[C@@]12[C@H](O)C[C@@H](C)[C@]3(C[C@@H](c4ccoc4)OC3=O)[C@H]1C[C@H](O)C[C@]21CO1", "activity change, negative = cytotoxicity": "inactive"}

Next molecule, activity change, negative = cytotoxicity to be filled in.
For the molecule CC(C)(O)C1CC=C(C(=O)OCC2OC(Oc3c(O)cc(C(=O)O)cc3O)C(O)C(O)C2O)CC1 (stereo unspecified) , give its reported activity change, negative = cytotoxicity.
inactive

* * *

Measured parasite growth remaining, % of DMSO control (lower = more inhibition), listed per entry for reference.
assay: qHTS profiling of the MIPE4 collection as inhibitors of Plasmodium falciparum (DD2) proliferation (AID 743345); details: P. falciparum Dd2 in erythrocytes, SYBR Green DNA, 72 h; at 28.5 µM (top of the series) unless noted
Non-standard residues stand in square brackets, D forms with d. Residues, ends and D or L forms follow the SMILES beside them. Orn = NCCC[C@H](N)C(=O)O
I only need the number, in %, no unit after it.

{"molecule": "C[C@@H]1CCN(C(=O)CC#N)C[C@@H]1N(C)c1ncnc2[nH]ccc12", "reported": 103}
{"molecule": "CC(C)C[C@@H]1NC(=O)[C@H](CCCN)NC(=O)[C@H](C(C)C)NC(=O)[C@@H]2CCCN2C(=O)[C@@H](Cc2ccccc2)NC(=O)[C@H](CC(C)C)NC(=O)[C@H](CCCN)NC(=O)[C@H](C(C)C)NC(=O)[C@@H]2CCCN2C(=O)[C@@H](Cc2ccccc2)NC1=O (cyclo(V[Orn]L[dF]PV[Orn]L[dF]P))", "reported": 5.43}

Next molecule, parasite growth remaining, % of DMSO control (lower = more inhibition) to be filled in.
For the molecule "C=C1C(=CC=C2CCC[C@@]3(C)[C@@H]2CC[C@H]3[C@H](C)CCCC(C)C)C[C@@H](O)C[C@@H]1O" , give its reported parasite growth remaining, % of DMSO control (lower = more inhibition).
65.2

* * *

test system: Nanoluciferase (engineered Oplophorus gracilirostris luciferase); assay: Primary Nanoluciferase (NLuc) qHTS assay for identification of artifact compounds. (AID 1845222); conditions: NLuc-conditioned medium, Nano-Glo luminescence, 5 min; series mostly up to 54.1 µM;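 further: NLuc secreted into diluted conditioned medium of S16 cells; 0% = DMSO and -100% = no enzyme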
Active and inactive are the calls of the source. Calls come from the whole dose curve; as a rule, active = well fitted inhibition curve with a large enough effect; inconclusive = small, poorly fitted or top-dose-only effect; inactive = flat fitted curve, though single readings scatter.
endpoint_label: activity, negative = inhibition

Below are worked cases with known answers.
{"molecule": "O=C(CCCCc1ccc2ccccc2c1)C(F)(F)F", "endpoint_label": "activity, negative = inhibition", "reported": "inactive"}
{"molecule": "C(#Cc1cccc(CN2CCOCC2)c1)CCN1CCCCC1", "endpoint_label": "activity, negative = inhibition", "reported": "inactive"}
{"molecule": "CC1CCC23COC(=O)C2=CC(O)CC3C1(C)CCC1=CC(=O)OC1O (centres undefined)", "endpoint_label": "activity, negative = inhibition", "reported": "inactive"}
{"molecule": "COC1CC(=O)CCC(C)OC(=O)CC1O (centres undefined)", "endpoint_label": "activity, negative = inhibition", "reported": "inactive"}
{"molecule": "COc1cc(C2OCC3C(c4ccc(OC5OC(CO)C(O)C(O)C5O)c(OC)c4)OCC23)ccc1O (centres undefined)", "endpoint_label": "activity, negative = inhibition", "reported": "inactive"}

Given "CNC(=O)[C@H]1O[C@@H](n2cnc3c(NCc4ccc(N)c(I)c4)ncnc32)[C@H](O)[C@@H]1O" , report its activity, negative = inhibition on Nanoluciferase (engineered Oplophorus gracilirostris luciferase).
-0.867% [at 11.6 µM] (inactive)

* * *

tested on: CP252; experiment: qHTS profiling for inhibitors of Plasmodium falciparum proliferation (AID 504749);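 further: 0% = DMSO vehicle and full inhibition = artemisinin control; nearly all actives have a fitted effect of over 60% in size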; conditions: P. falciparum in erythrocytes, SYBR Green DNA, 72 h; series mostly up to 28.7 µM
Inconclusive results are not listed. Activity calls are given as the source filed them. Calls come from the whole dose curve; as a rule, active = well fitted inhibition curve with a large enough effect; inconclusive = small, poorly fitted or top-dose-only effect; inactive = flat fitted curve, though single readings scatter.
Hello, when you answer, please use one of the following outcomes: True (active), False (inactive)

{"compound": "CCCCC/C=C\\C/C=C\\CCCCCCCC(=O)O", "tested_system": "CP252", "assigned_class": "False"}

For "C[C@H]1C[C@H]2[C@@H]3CCC4=CC(=O)C=C[C@]4(C)[C@@]3(F)[C@@H](O)C[C@]2(C)[C@@]1(O)C(=O)CO" , what call appears in the results of this test?
False

For "CC[N+](C)(C)Cc1ccccc1Br" , what call appears in the results of this test?
False

* * *

system: Tov-21-G; assay: Primary qHTS to identify gynecologic anti-cancer compounds using libraries of approved drugs and bioactive compounds (AID 1345084); details: Gynecologic cancer cell panel viability, ATPlite luminescence, 48 h; series mostly up to 57.5 µM; further: on the % scale 0 is the no-effect control and ±100 the full control effect; nearly all actives have a fitted effect of over 55% in size
Inconclusive results are not listed. Calls of active or inactive are those of the source. Calls come from the whole dose curve; as a rule, active = well fitted cell-killing curve with a large enough effect; inconclusive = small, poorly fitted or top-dose-only effect, or effect the other way; inactive = flat fitted curve, though single readings scatter.
endpoint_label: activity change, negative = cytotoxicity

{"compound": "CC1=CC(=O)CC(C)(CO[C@@H]2O[C@H](CO)[C@@H](O)[C@H](O)[C@H]2O)C1(O)/C=C/C(C)=C/C(=O)O (stereo partly drawn)", "reported": "inactive"}
{"compound": "C[C@@H]1C/C=C/C=C\\C=C\\C=C\\[C@H](O[C@@H]2O[C@H](C)[C@@H](O)[C@H](N)[C@@H]2O)C[C@@H]2O[C@](O)(C[C@@H](O)C[C@H]3O[C@@H]3/C=C/C(=O)O1)C[C@H](O)[C@H]2C(=O)O", "reported": "inactive"}
{"compound": "CC1(C)CC[C@]2(C(=O)O)CC[C@]3(C)C(=CCC4[C@@]5(C)C[C@@H](O)[C@H](O)C(C)(C)C5CC[C@]43C)[C@@H]2[C@@H]1O (stereo partly drawn)", "reported": "inactive"}

* * *

experiment: Primary fluorescence-based thiol-reactive (MSTI) qHTS assay for identification of artifact compounds. (AID 1845221); conditions: MSTI thiol-reactivity probe, 1 h; series mostly up to 53.8 µM;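 further: thiol-reactive compounds lower the probe fluorescence signal; nearly all actives have a fitted effect of over 65% in size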
Results filed as inconclusive are left out. Activity calls are given as the source filed them. Calls come from the whole dose curve; as a rule, active = well fitted inhibition curve with a large enough effect; inconclusive = small, poorly fitted or top-dose-only effect; inactive = no such curve, though single readings can be large or run the other way.
Measured activity change, negative = thiol reactive, listed per entry for reference.

For the molecule CC1(C)C[C@H]2C3=CCC4[C@@]5(C)CC[C@H](O[C@H]6O[C@H](C(=O)O)[C@@H](O)[C@H](O)[C@H]6O[C@H]6O[C@H](CO)[C@@H](O)[C@H](O)[C@H]6O[C@@H]6O[C@H](CO)[C@@H](O)[C@H](O)[C@H]6O)[C@](C)(CO)C5CC[C@@]4(C)[C@]3(C)CC[C@@]2(C)[C@H](O[C@@H]2OC[C@H](O)[C@H](OC3O[C@H](CO)[C@@H](O)[C@H](O)[C@H]3O)[C@H]2O)[C@@H]1O (some centres undefined) , give its reported activity change, negative = thiol reactive.
48.1% [at 11.5 µM] (inactive)

For the molecule CC1OC(OC2C(C)OC(OC3C(OC(=O)/C=C/c4ccc(O)cc4)C(CO)OC(OC4(COC(=O)/C=C/c5ccc(O)cc5)OC(CO)C(O)C4O)C3OC3OCC(O)(CO)C3O)C(O)C2O)C(O)C(O)C1O (centres undefined) , give its reported activity change, negative = thiol reactive.
1.76% [at 11.5 µM] (inactive)

For the molecule CC1OC(O[C@H]2[C@@H](O)C[C@@]3(C)C([C@H](O)C[C@]4(C)C3CC=C3C5CC(C)(C)CC[C@]5(C(=O)OC5OC(CO)C(O)C(O)C5OC5OCC(OC6OCC(OC7OCC(O)C(O)C7O)C(O)C6O)C(OC6OCC(O)(CO)C6O)C5O)CC[C@]34C)[C@]2(C)CO)C(O)C(O)C1O (some centres undefined) , give its reported activity change, negative = thiol reactive.
280% [at 11.5 µM] (inactive)

For the molecule C=CC(C)(O)CC/C=C(\C)C(=O)OC1CC2(C(=O)O)CCC3(C)C(=CCC4C5(C)CCC(OC6OC(COC7OCC(O)C(O)C7O)C(O)C(OC7OCC(O)C(O)C7O)C6OC6OC(CO)C(O)C(O)C6OC6OCC(O)C(O)C6O)C(C)(C)C5CCC43C)C2CC1(C)C (centres undefined) , give its reported activity change, negative = thiol reactive.
122% [at 11.5 µM] (inactive)
